molecular target: T1, dimeric murine LTBR-Fc disulfide-linked homodimer biotinylated (P1AE2655) (mouse; human, UniProt P50284 31-223, biotinylated in vitro); assay: direct ELISA
T1 construct: also called murine LTBR ECD; not shown: human IgG1 Fc-Fragment
# max. binding (OD) values compiled below
measure-name: max. binding (OD)

1. P1AE9450 (antibody, human IgG1, kappa, L234A L235A, V domains shown, human IgG1 PG LALA; from transgenic rabbit immunization; also called LTBR (9450)) VH: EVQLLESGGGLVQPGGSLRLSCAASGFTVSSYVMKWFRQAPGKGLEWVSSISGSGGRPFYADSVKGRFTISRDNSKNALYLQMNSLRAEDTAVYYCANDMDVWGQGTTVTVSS VL: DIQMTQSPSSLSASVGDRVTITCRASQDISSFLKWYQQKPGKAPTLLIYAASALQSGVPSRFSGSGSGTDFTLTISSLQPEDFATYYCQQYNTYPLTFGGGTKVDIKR ... 0.235
2. P1AF0080 (antibody, human IgG1, kappa, L234A L235A, V domains shown, human IgG1 PG LALA; from transgenic rabbit immunization; also called LTBR (0080)) VH: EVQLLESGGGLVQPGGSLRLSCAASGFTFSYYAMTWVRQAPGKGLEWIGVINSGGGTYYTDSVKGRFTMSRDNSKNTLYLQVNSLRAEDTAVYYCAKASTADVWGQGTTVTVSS VL: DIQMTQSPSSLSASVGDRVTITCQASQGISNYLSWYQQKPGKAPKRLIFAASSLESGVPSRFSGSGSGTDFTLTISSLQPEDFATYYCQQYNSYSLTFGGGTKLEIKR ... 3.07

These data points were gathered from patent US20250034269A1.
